assay: Selectivity index, ratio of IC50 for cytotoxicity against African green monkey Vero cells assessed as inhibition of cell growth to IC50 for antitrypanosomal activity against Trypanosoma cruzi epimastigotes assessed as parasite growth inhibition; format: toxicity, cell-based; conditions: read-out: Ratio IC50
Examples of compounds with documented selectivity ratio follow.
Experimental readout: selectivity ratio

{"columns": ["Smiles entry", "Observed result"],
 "data": [
  ["O=[N+]([O-])c1ccc(/C=N/N=C/c2ccc(O)cc2)o1", 3],
  ["O=[N+]([O-])c1ccc(/C=N/N=C/c2ccc(F)cc2)o1", 13],
  ["NC(=O)N/N=C/c1ccc([N+](=O)[O-])o1", 13],
  ["O=[N+]([O-])c1ccc(/C=N/N=C/c2ccc(Br)cc2)o1", 2],
  ["COc1ccc(/C=N/N=C/c2ccc([N+](=O)[O-])o2)cc1", 10],
  ["O=[N+]([O-])c1ccc(/C=N/N=C/c2ccccc2)s1", 5],
  ["O=[N+]([O-])c1ccc(/C=N/N=C/c2ccc([N+](=O)[O-])o2)cc1", 4],
  ["O=[N+]([O-])c1ccc(/C=N/N=C/c2ccc(Cl)cc2)o1", 41],
  ["O=[N+]([O-])c1ccc(/C=N/N=C/c2ccccc2)o1", 2],
  ["Cc1ccc(/C=N/N=C/c2ccc([N+](=O)[O-])o2)cc1", 27],
  ["O=[N+]([O-])c1ccc(/C=N/N=C/c2ccc(OCc3ccccc3)cc2)o1", 1]
]}

====

assay: in vitro; settings: monkey, Vero cells
Description: Selectivity index, ratio of IC50 for cytotoxicity against african green monkey Vero cells assessed as inhibition of cell growth to IC50 for antileishmanial activity against Leishmania major IR-173 promastigotes assessed as inhibition of parasite growth

{"columns": ["Smiles entry", "selectivity ratio"],
 "data": [
  ["O=[N+]([O-])c1ccc(/C=N/N=C/c2ccc(O)cc2)o1", 29],
  ["O=[N+]([O-])c1ccc(/C=N/N=C/c2ccc(Br)cc2)o1", 133],
  ["O=[N+]([O-])c1ccc(/C=N/N=C/c2ccc(Cl)cc2)o1", 238],
  ["O=[N+]([O-])c1ccc(/C=N/N=C/c2ccccc2)s1", 29],
  ["O=[N+]([O-])c1ccc(/C=N/N=C/c2ccc(F)cc2)o1", 65],
  ["O=[N+]([O-])c1ccc(/C=N/N=C/c2ccc([N+](=O)[O-])o2)cc1", 17],
  ["O=[N+]([O-])c1ccc(/C=N/N=C/c2ccc(O)cc2)s1", 15],
  ["NC(=O)N/N=C/c1ccc([N+](=O)[O-])o1", 54],
  ["O=[N+]([O-])c1ccc(/C=N/N=C/c2ccc(OCc3ccccc3)cc2)o1", 222],
  ["COc1ccc(/C=N/N=C/c2ccc([N+](=O)[O-])o2)cc1", 57],
  ["O=[N+]([O-])c1ccc(/C=N/N=C/c2ccc(F)cc2)s1", 26],
  ["O=Cc1ccc([N+](=O)[O-])s1", 3],
  ["O=[N+]([O-])c1ccc(/C=N/N=C/c2ccc(OCc3ccccc3)cc2)s1", 23],
  ["O=Cc1ccc([N+](=O)[O-])o1", 2],
  ["O=[N+]([O-])c1ccc(/C=N/N=C/c2ccccc2)o1", 14],
  ["Cc1ccc(/C=N/N=C/c2ccc([N+](=O)[O-])o2)cc1", 238]
]}

====

Listing of entries alongside the reported pIC50.
test system: Leishmania donovani; test: Antileishmanial activity against Leishmania donovani MHOM/IN/95/9515 amastigote assessed as inhibition of parasite growth incubated for 72 hrs by resazurin staining based analysis; details: MHOM/IN/95/9515, 72 h
pIC50: −log10 of the molar value.

{"columns": ["Molecule", "Assayed system", "Modifier sign", "pIC50"],
 "data": [
  ["O=[N+]([O-])c1ccc(/C=N/N=C/c2ccccc2)o1", "Leishmania donovani", "<", 5.00],
  ["C(=N\\N=C\\c1ccco1)/c1ccc(OCc2ccccc2)cc1", "Leishmania donovani", "<", 5.00],
  ["COc1ccc(/C=N/N=C/c2ccc([N+](=O)[O-])o2)cc1", "Leishmania donovani", "=", 5.64],
  ["O=[N+]([O-])c1ccc(/C=N/N=C/c2ccc(O)cc2)o1", "Leishmania donovani", "=", 5.57],
  ["O=[N+]([O-])c1ccc(/C=N/N=C/c2ccco2)cc1", "Leishmania donovani", "<", 5.00],
  ["O=Cc1ccc([N+](=O)[O-])o1", "Leishmania donovani", "=", 5.57],
  ["O=C1OCCN1/N=C/c1ccc([N+](=O)[O-])o1 [FURAZOLIDONE]", "Leishmania donovani", "=", 5.57],
  ["O=[N+]([O-])c1ccc(/C=N/N=C/c2ccc(Cl)cc2)o1", "Leishmania donovani", "<", 5.00],
  ["O=[N+]([O-])c1ccc(/C=N/N=C/c2ccc(OCc3ccccc3)cc2)o1", "Leishmania donovani", "=", 6.60],
  ["O=[N+]([O-])c1ccc(/C=N/N=C/c2ccc(Br)cc2)o1", "Leishmania donovani", "=", 5.19],
  ["O=[N+]([O-])c1ccc(/C=N/N=C/c2ccc(F)cc2)o1", "Leishmania donovani", "<", 5.00],
  ["O=[N+]([O-])c1ccc(/C=N/N=C/c2ccc(O)cc2)s1", "Leishmania donovani", "=", 6.47],
  ["Cc1ccc(/C=N/N=C/c2ccc([N+](=O)[O-])o2)cc1", "Leishmania donovani", "<", 5.00],
  ["O=Cc1ccc([N+](=O)[O-])s1", "Leishmania donovani", "<", 5.00],
  ["O=[N+]([O-])c1ccc(/C=N/N=C/c2ccc(F)cc2)s1", "Leishmania donovani", "<", 5.00],
  ["NC(=O)N/N=C/c1ccc([N+](=O)[O-])o1 [NITROFURAZONE]", "Leishmania donovani", "=", 5.77],
  ["O=[N+]([O-])c1ccc(/C=N/N=C/c2ccccc2)s1", "Leishmania donovani", "=", 5.14],
  ["O=[N+]([O-])c1ccc(/C=N/N=C/c2ccc([N+](=O)[O-])o2)cc1", "Leishmania donovani", "=", 6.28]
]}
